src = patent US20140094462A1

- Test system: C3H10T1/2
- Assay Protocol: Induction of osteogenic differentiation (modulation of osteoblast differentiation)
- Assay Setup: Mus musculus, C3H 10T1/2, read-out: IC50 (nM) C3H10T1/2
Below: a set of entries, each annotated with reported IC50.

Solved cases below.
Exercise: Write down the reported IC50 of N[C@@H]1C/C=C/C[C@@H](CC(=O)NCc2ccc(Cl)cc2)C(=O)NC[C@@H](c2ccccc2)OC1=O [Example CV] , test system: C3H10T1/2.
Key: 100 to 1000 nM

Exercise: Write down the reported IC50 of CS(=O)(=O)N[C@@H]1C/C=C/CCC(=O)N[C@H](c2ccccc2)COC1=O [Example A] , test system: C3H10T1/2.
Key: < 100 nM

Exercise: Write down the reported IC50 of C[C@H]1C/C=C/C[C@@H](CC(=O)NCc2ccc(Cl)cc2)C(=O)NC[C@@H](c2ccccc2)OC1=O [Example DF] , test system: C3H10T1/2.
Key: 100 to 1000 nM

Exercise: Write down the reported IC50 of O=C(C[C@@H]1C/C=C/CCC(=O)N[C@H](c2ccccc2)COC1=O)NCc1ccc(Cl)nc1 [Example DD] , test system: C3H10T1/2.
Key: 100 to 1000 nM

Exercise: Write down the reported IC50 of CN1CCC(CNC(=O)C[C@@H]2C/C=C/CCC(=O)O[C@H](c3ccccc3)CNC2=O)CC1 [Example DN] , test system: C3H10T1/2.
Key: 1000 to 100000 nM

Exercise: Write down the reported IC50 of C[C@@H]1C/C=C/C[C@@H](N)C(=O)N[C@H](c2ccccc2)COC1=O [Example M] , test system: C3H10T1/2.
Key: > 100000 nM

Exercise: Write down the reported IC50 of CCN(CC)C(=O)C[C@@H]1C/C=C/CCC(=O)O[C@H](c2ccccc2)CNC1=O [Example DO] , test system: C3H10T1/2.
Key: 1000 to 100000 nM

Exercise: Write down the reported IC50 of O=C1CC/C=C/C[C@@H](O)C(=O)OC[C@@H](c2ccccc2)N1 [Example H] , test system: C3H10T1/2.
Key: 1000 to 100000 nM

Exercise: Write down the reported IC50 of CC(C)N[C@H]1C/C=C/C[C@@H](CC(=O)NCc2ccc(Cl)cc2)C(=O)NC[C@@H](c2ccccc2)OC1=O [Example DE] , test system: C3H10T1/2.
Key: 100 to 1000 nM

Exercise: Write down the reported IC50 of O=C1CC/C=C/CCC(=O)OCC(c2ccccc2)N1 (stereo not drawn) [F] , test system: C3H10T1/2.
Key: 100 to 1000 nM

---
Exercise: Write down the reported IC50 of C[C@H]1[C@@H](c2ccccc2)OC(=O)CCCCC[C@@H](CC(=O)NCc2ccc(Cl)cc2)C(=O)N1C [Example DC] , test system: C3H10T1/2.
Key: 100 to 1000 nM

Exercise: Write down the reported IC50 of CC(=O)N[C@H]1C/C=C/C[C@@H](CC(=O)NCc2ccc(Cl)cc2)C(=O)NC[C@@H](c2ccccc2)OC1=O [Example DJ] , test system: C3H10T1/2.
Key: 100 to 1000 nM

Exercise: Write down the reported IC50 of C[C@H]1[C@@H](c2ccccc2)OC(=O)CC/C=C/C[C@@H](CC(=O)NCc2ccc(Cl)cc2)C(=O)N1C [Example CZ] , test system: C3H10T1/2.
Key: 100 to 1000 nM

Exercise: Write down the reported IC50 of O=C(C[C@@H]1C[C@H](O)[C@@H](O)CCC(=O)OC[C@@H]2CCCN2C1=O)NCc1ccc(Cl)cc1 [Example G] , test system: C3H10T1/2.
Key: 1000 to 100000 nM

Exercise: Write down the reported IC50 of CC(=O)N[C@H]1C/C=C/C[C@@H](CC(=O)NCc2ccc(Cl)cc2)C(=O)N(C)[C@@H](C)[C@@H](c2ccccc2)OC1=O [Example DM] , test system: C3H10T1/2.
Key: 1000 to 100000 nM

Exercise: Write down the reported IC50 of O=C(C[C@@H]1C/C=C/CCC(=O)O[C@H](c2ccccc2)CNC1=O)NCc1ccc([N+](=O)[O-])cc1 [Example DQ] , test system: C3H10T1/2.
Key: > 100000 nM

Exercise: Write down the reported IC50 of O=C(C[C@@H]1C/C=C/CCC(=O)O[C@H](c2ccccc2)CNC1=O)N[C@@H]1CCCc2ccccc21 [Example CR] , test system: C3H10T1/2.
Key: < 100 nM

Exercise: Write down the reported IC50 of CCOCCNC(=O)C[C@@H]1C/C=C/CCC(=O)O[C@H](c2ccccc2)[C@H](C)N(C)C1=O [Example DR] , test system: C3H10T1/2.
Key: > 100000 nM

Exercise: Write down the reported IC50 of CC(=O)N[C@@H]1C/C=C/CCC(=O)N[C@H](c2ccccc2)COC1=O [Example B] , test system: C3H10T1/2.
Key: < 100 nM

Exercise: Write down the reported IC50 of C[C@@H]1C/C=C/CCC(=O)N[C@H](c2ccccc2)COC1=O [Example C] , test system: C3H10T1/2.
Key: 100 to 1000 nM

Exercise: Write down the reported IC50 of C[C@H]1C/C=C/C[C@@H](CC(=O)NCc2ccc(Cl)cc2)C(=O)OC[C@@H](c2ccccc2)NC1=O [Example DI] , test system: C3H10T1/2.
Key: 1000 to 100000 nM
